// provenance: the supplement of paper PMC10065799

- study system: Hck (UniProt P08631)
- Sequence (P08631 whole entry, looked up): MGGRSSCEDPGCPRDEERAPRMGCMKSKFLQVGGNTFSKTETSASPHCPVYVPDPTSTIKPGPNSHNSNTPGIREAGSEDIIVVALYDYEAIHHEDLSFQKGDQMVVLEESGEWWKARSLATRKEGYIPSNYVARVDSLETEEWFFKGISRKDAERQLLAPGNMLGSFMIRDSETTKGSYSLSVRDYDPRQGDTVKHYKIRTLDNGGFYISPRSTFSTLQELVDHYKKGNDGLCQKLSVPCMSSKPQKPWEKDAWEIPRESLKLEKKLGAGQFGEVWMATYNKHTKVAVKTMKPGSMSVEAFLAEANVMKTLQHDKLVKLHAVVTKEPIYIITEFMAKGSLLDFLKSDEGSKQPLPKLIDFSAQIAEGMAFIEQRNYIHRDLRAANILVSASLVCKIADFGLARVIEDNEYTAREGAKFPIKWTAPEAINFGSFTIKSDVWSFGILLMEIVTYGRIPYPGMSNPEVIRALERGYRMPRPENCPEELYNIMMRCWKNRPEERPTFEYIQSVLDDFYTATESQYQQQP
- method notes: phosphorylation enrichment, bacterial display (enrichment ratio); higher = better substrate or ligand; peptides without Tyr show the background;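 note: 11-residue human phosphosite peptides and single-mutation variants displayed on the E. coli surface, counted by deep sequencing, each peptide's frequency after selection divided by its frequency in the unselected input library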;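 note: frequency after pTyr selection over input frequency; kinase dosed for 20-30% of maximal phosphorylation in three min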
Measured phosphorylation enrichment accompanies every entry in the list below.
metric name: phosphorylation enrichment

input sequence	study system	metric name	result number
RVLHNYLVWCV [ECEL1_Y400_R404C]	Hck (UniProt P08631)	phosphorylation enrichment	0.611
GRVLGYGAFGK [FLT4_Y853]	Hck (UniProt P08631)	phosphorylation enrichment	0.427
YDGKEYDPVEA [MAPRE2_Y167]	Hck (UniProt P08631)	phosphorylation enrichment	0.567
RFLKDYGEFEV [GINS1_Y156_C152Y_YF]	Hck (UniProt P08631)	phosphorylation enrichment	0.695
NNTFLYQLVFD [EXO1_Y284]	Hck (UniProt P08631)	phosphorylation enrichment	2.58
VHFLVYHHHHH [CACNA1H_Y519_H516Y_YF]	Hck (UniProt P08631)	phosphorylation enrichment	0.416
DAVCYYRMENA [NPHS2_Y195_I192V]	Hck (UniProt P08631)	phosphorylation enrichment	1.37
GQLIVYAPPEW [CNTN6_Y315_F314V]	Hck (UniProt P08631)	phosphorylation enrichment	2.22
KIMVIYDGACQ [VWDE_Y1035_T1032M]	Hck (UniProt P08631)	phosphorylation enrichment	1.49
KKHIPYREHKS [CSNK1G1_Y205]	Hck (UniProt P08631)	phosphorylation enrichment	1.19
KIKGRYEKCEP [KRT26_Y119_W118R]	Hck (UniProt P08631)	phosphorylation enrichment	0.546
SIDLGYHKDLQ [NF1_Y1169_G1166D]	Hck (UniProt P08631)	phosphorylation enrichment	0.454
WFQTKYEELQI [KRT6B_Y360_YF]	Hck (UniProt P08631)	phosphorylation enrichment	0.417
DYYDLYGGKKF [PTPN11_Y66_E69K]	Hck (UniProt P08631)	phosphorylation enrichment	5.9
VSFDEYRFRSV [CFTR_Y515_YF]	Hck (UniProt P08631)	phosphorylation enrichment	0.574
DLTQDYEEWKR [ORC6_Y232]	Hck (UniProt P08631)	phosphorylation enrichment	0.845
KVQVSYKGETK [HSPA1A_Y107]	Hck (UniProt P08631)	phosphorylation enrichment	0.346
ILILKYPIEHG [ACTA1_Y71_T68I]	Hck (UniProt P08631)	phosphorylation enrichment	0.488
DLEKTYNTFRS [B4GALNT2_Y538_A533D_YF]	Hck (UniProt P08631)	phosphorylation enrichment	0.734
FSQETYYRVSN [ABCD1_Y180_Q178E]	Hck (UniProt P08631)	phosphorylation enrichment	4.2
TWSPKYTLRSH [STRN3_Y474_N471S]	Hck (UniProt P08631)	phosphorylation enrichment	0.419
SGRPGYCLGTR [SCO1_Y60]	Hck (UniProt P08631)	phosphorylation enrichment	0.426
IGDENYGEGSS [ACO2_Y665]	Hck (UniProt P08631)	phosphorylation enrichment	0.59
SIKDKYVMALY [KCNH2_Y611_T613M]	Hck (UniProt P08631)	phosphorylation enrichment	0.59
IDPFTYTPFGS [CYP3A4_Y432_I431T_YF]	Hck (UniProt P08631)	phosphorylation enrichment	1.18
FRDALYKFMVD [PHEX_Y250_YF]	Hck (UniProt P08631)	phosphorylation enrichment	0.559
NDTAGYFIIGG [SEL1L3_Y399]	Hck (UniProt P08631)	phosphorylation enrichment	0.601
SVVVPYELPEV [TP53_Y220_P222L]	Hck (UniProt P08631)	phosphorylation enrichment	0.58
CNTIHYNYMCN [TP53_Y234_T230N]	Hck (UniProt P08631)	phosphorylation enrichment	0.428
